Each recorded value in this set is attributed to paper PMC4394546.

// reported IC50 for each item listed
Test system: Detroit 551
Test: In vitro cytotoxicity against normal cell Detroit 551
Assay type: cell-based
Conditions: Homo sapiens, mean ± standard deviation, three experiments
Report the figure in µM without appending any unit label.

Some compounds with known IC50 results, for comparison:
INSERT INTO measurements (compound, observed_value) VALUES
  ('CCN(CC)CCNC(=O)c1ccc(/N=C2/c3ccccc3C(=O)c3c2cc(C)n3Cc2ccccc2)cc1 [Compound 16]', 4.78),
  ('CCN(CC)CCNC(=O)c1ccc(/N=C2/c3ccccc3C(=O)c3c2ccn3Cc2ccccc2)cc1 [Compound 15]', 7.68);

Next compound, IC50 to be filled in.
Assay Detroit 551, sample CC[C@@]1(O)C(=O)OCc2c1cc1n(c2=O)Cc2cc3ccccc3nc2-1 [CPT, camptothecin, reference compound] , IC50 read: 0.99

---

endpoint_label: melting point

Reference set, count: 3
INSERT INTO assay_data (compound, endpoint_label, observed_value) VALUES
  ('O=C1c2ccccc2/C(=N/O)c2ccn(Cc3ccccc3)c21', 'melting point', '202 to 203 °C'),
  ('CC(=O)c1c2c(n(Cc3ccccc3)c1C)C(=O)c1ccccc1C2=O', 'melting point', '135 to 136 °C'),
  ('CCN(CC)CCNC(=O)c1ccc(/N=C2/c3ccccc3C(=O)c3c2ccn3Cc2ccccc2)cc1', 'melting point', '152 to 153 °C');

// melting point value for `Cc1cc2c(n1Cc1ccccc1)C(=O)c1ccccc1C2=NO` : 259 to 260 °C

Reported melting point ( `CON=C(C)c1c2c(n(Cc3ccccc3)c1C)C(=O)c1ccccc1C2=O` ) = 168 to 169 °C

Value of melting point reported for the compound `Cc1cc2c(n1Cc1ccccc1)C(=O)c1ccccc1C2=O` is 139 to 140 °C

What the record says about O=C1c2ccccc2C(=O)c2c1ccn2Cc1ccccc1 [Compound 8, 1-Benzyl-1H-benzo[f]indole-4,9-dione] : melting point is 173 to 174 °C

The compound listed as `CCN(CC)CCNC(=O)c1ccc(/N=C2/c3ccccc3C(=O)c3c2cc(C)n3Cc2ccccc2)cc1` has a reported melting point of 138 to 139 °C

Entry `CC(=NO)c1c2c(n(Cc3ccccc3)c1C)C(=O)c1ccccc1C2=O` ; melting point = 204 to 205 °C

---

Assay: In vitro cytotoxicity against SF-268 cells
Format: cell-based
Conditions: human, SF-268 CNS cancer cells; 4 μg/mL; read-out: Cytotoxicity (% survival rate), SF-268
endpoint_label: viability at 4 μg/mL (%)
Give just the number in %; leave the unit off.

Answered examples (9):
INSERT INTO measurements (molecule, endpoint_label, observed_value) VALUES
  ('O=C1c2ccccc2C(=O)c2c1ccn2Cc1ccccc1 [Compound 8, 1-Benzyl-1H-benzo[f]indole-4,9-dione]', 'viability at 4 μg/mL', 103),
  ('CON=C(C)c1c2c(n(Cc3ccccc3)c1C)C(=O)c1ccccc1C2=O', 'viability at 4 μg/mL', 112),
  ('CC(=NO)c1c2c(n(Cc3ccccc3)c1C)C(=O)c1ccccc1C2=O', 'viability at 4 μg/mL', 109),
  ('CC[C@@]1(O)C(=O)OCc2c1cc1n(c2=O)Cc2cc3ccccc3nc2-1 [CPT, camptothecin, reference compound]', 'viability at 4 μg/mL', 25),
  ('Cc1cc2c(n1Cc1ccccc1)C(=O)c1ccccc1C2=O', 'viability at 4 μg/mL', 106),
  ('Cc1cc2c(n1Cc1ccccc1)C(=O)c1ccccc1C2=NO', 'viability at 4 μg/mL', 102),
  ('CCN(CC)CCNC(=O)c1ccc(/N=C2/c3ccccc3C(=O)c3c2cc(C)n3Cc2ccccc2)cc1', 'viability at 4 μg/mL', 106),
  ('CCN(CC)CCNC(=O)c1ccc(/N=C2/c3ccccc3C(=O)c3c2ccn3Cc2ccccc2)cc1', 'viability at 4 μg/mL', 120),
  ('O=C1c2ccccc2/C(=N/O)c2ccn(Cc3ccccc3)c21', 'viability at 4 μg/mL', 106);

# input for lookup
Sure, the documented viability at 4 μg/mL for `CC(=O)c1c2c(n(Cc3ccccc3)c1C)C(=O)c1ccccc1C2=O` is 115

---

# reported viability at 4 μg/mL; entries follow
Experiment: In vitro cytotoxicity against NCI-H460 cells
Format: cell-based
Conditions: human, NCI-H460 lung cancer cells; 4 μg/mL; read-out: Cytotoxicity (% survival rate), NCI-H460
Give your result in % as a bare value.

INSERT INTO measurements (compound, endpoint_label, observed_value) VALUES
  ('CON=C(C)c1c2c(n(Cc3ccccc3)c1C)C(=O)c1ccccc1C2=O [Compound 14]', 'viability at 4 μg/mL', 108),
  ('O=C1c2ccccc2/C(=N/O)c2ccn(Cc3ccccc3)c21 [Compound 10]', 'viability at 4 μg/mL', 110);

Reported viability at 4 μg/mL ( Cc1cc2c(n1Cc1ccccc1)C(=O)c1ccccc1C2=O [Compound 9] ) = 104

Record summary for CCN(CC)CCNC(=O)c1ccc(/N=C2/c3ccccc3C(=O)c3c2cc(C)n3Cc2ccccc2)cc1 [Compound 16] : reported viability at 4 μg/mL = 18

Noted for CC(=NO)c1c2c(n(Cc3ccccc3)c1C)C(=O)c1ccccc1C2=O [Compound 13] : its viability at 4 μg/mL reads 111

viability at 4 μg/mL recorded for this compound, O=C1c2ccccc2C(=O)c2c1ccn2Cc1ccccc1 [Compound 8, 1-Benzyl-1H-benzo[f]indole-4,9-dione] , is 96

---

Test: In vitro cytotoxicity against NCI-H460 cells
Assay type: cell-based
Settings: human, NCI-H460 lung cancer cells; 4 μg/mL; read-out: Cytotoxicity (% survival rate), NCI-H460
Some compounds, each annotated with its measured viability at 4 μg/mL.
Just the number in %, nothing appended.

Solved entries:
INSERT INTO assay_data (compound, observed_value) VALUES
  ('CC[C@@]1(O)C(=O)OCc2c1cc1n(c2=O)Cc2cc3ccccc3nc2-1 [CPT, camptothecin, reference compound]', 1),
  ('CC(=O)c1c2c(n(Cc3ccccc3)c1C)C(=O)c1ccccc1C2=O', 88),
  ('CCN(CC)CCNC(=O)c1ccc(/N=C2/c3ccccc3C(=O)c3c2ccn3Cc2ccccc2)cc1', 31);

`Cc1cc2c(n1Cc1ccccc1)C(=O)c1ccccc1C2=NO` has a reported viability at 4 μg/mL of 110

---

Each entry below lists one item and its recorded viability at 4 μg/mL value.
Assay: In vitro cytotoxicity against MCF7 cells
Format: cell-based
Details: human, MCF7 breast cancer cells; 4 μg/mL; read-out: Cytotoxicity (% survival rate), MCF7
A number alone suffices; assume %.

As a guide, the following entries are already answered.
INSERT INTO results (compound, scale_unit, observed_value) VALUES
  ('CC[C@@]1(O)C(=O)OCc2c1cc1n(c2=O)Cc2cc3ccccc3nc2-1 [CPT, camptothecin, reference compound]', '%', 33),
  ('Cc1cc2c(n1Cc1ccccc1)C(=O)c1ccccc1C2=O', '%', 105),
  ('O=C1c2ccccc2/C(=N/O)c2ccn(Cc3ccccc3)c21', '%', 110),
  ('CCN(CC)CCNC(=O)c1ccc(/N=C2/c3ccccc3C(=O)c3c2cc(C)n3Cc2ccccc2)cc1', '%', 57),
  ('Cc1cc2c(n1Cc1ccccc1)C(=O)c1ccccc1C2=NO', '%', 104);

`CCN(CC)CCNC(=O)c1ccc(/N=C2/c3ccccc3C(=O)c3c2ccn3Cc2ccccc2)cc1` yielded viability at 4 μg/mL of 82

For record `CC(=O)c1c2c(n(Cc3ccccc3)c1C)C(=O)c1ccccc1C2=O` the listed viability at 4 μg/mL is 78

---

Test: In vitro cytotoxicity against MCF7 cells
Type: cell-based
Settings: human, MCF7 breast cancer cells; 4 μg/mL; read-out: Cytotoxicity (% survival rate), MCF7
Listed below: viability at 4 μg/mL values for each entry.
Express it in %; write the number only.

Examples with answers:
INSERT INTO results (compound, scale_unit, observed_value) VALUES
  ('CC(=NO)c1c2c(n(Cc3ccccc3)c1C)C(=O)c1ccccc1C2=O [Compound 13]', '%', 106),
  ('O=C1c2ccccc2C(=O)c2c1ccn2Cc1ccccc1 [Compound 8, 1-Benzyl-1H-benzo[f]indole-4,9-dione]', '%', 99);

Turning to the following compound.
The value of viability at 4 μg/mL measured for the compound CON=C(C)c1c2c(n(Cc3ccccc3)c1C)C(=O)c1ccccc1C2=O [Compound 14] turned out to be 104
